The values you see were collected from patent US11098040B2.

experimentSummary: Whole blood stability, human
Format: in vitro ADME
conditionDescription: 60 min
Field: label. Allowed values: 1 (Whole Blood Stability % Remaining at 37° C. Human < 30%) or 0 (Whole Blood Stability % Remaining at 37° C. Human >= 30%).

Answered cases to consult:
>>> grouplabel("C[C@H]1Cc2c([nH]c3ccccc23)[C@H](c2ccc(NCC3CC3)cc2)N1C(=O)CCl")
0
>>> grouplabel("CC(C)OC(=O)[C@H]1Cc2c([nH]c3ccccc23)[C@H](c2ccc(C(=O)OC(C)(C)C)cc2)N1C(=O)CCl")
0

Note: attention shifts to another entry.
In the record for C[C@H]1Cc2c([nH]c3ccccc23)[C@H](c2ccc(C(=O)N[C@]34CC5C[C@H](C[C@H](C5)C3)C4)cc2)N1C(=O)CCl , is Whole Blood Stability % Remaining at 37° C. Human less than 30%?
0

---

Test system: MCF-10A
experimentSummary: Cell viability assay (CellTiter Glo), non-tumorigenic breast epithelial cell line MCF-10A
Assay type: cell-based
conditionDescription: Homo sapiens, 96 hours
What pIC50 was measured for each of the following?
Answers are plain numbers, as −log10 of the molar value.

Before answering, review these 3 worked examples.
>>> experimentalvalue("C[C@H]1Cc2c([nH]c3ccccc23)[C@H](c2ccc(C(=O)N[C@]34CC5C[C@H](C[C@H](C5)C3)C4)cc2)N1C(=O)CCl")
6.66
>>> experimentalvalue("COC(=O)[C@H]1Cc2c([nH]c3ccccc23)[C@H](c2ccc(C(=O)OCC34CC(F)(C3)C4)cc2)N1C(=O)CCl")
5.95
>>> experimentalvalue("COC(=O)c1ccc([C@H]2c3[nH]c4ccccc4c3C[C@H](C)N2C(=O)CCl)cc1")
6.05

Could I get pIC50 for every one of these entries?
1. COC(=O)[C@H]1Cc2c([nH]c3ccc(Br)cc23)[C@H](c2ccc(C(=O)OCC3CC3)cc2)N1C(=O)CCl
2. C[C@H]1Cc2c([nH]c3ccccc23)[C@H](c2ccc(N3CCOCC3)cc2)N1C(=O)CCl
3. CNS(=O)(=O)c1ccc([C@H]2c3[nH]c4ccccc4c3C[C@H](C(=O)OC)N2C(=O)CCl)cc1
4. COC(=O)[C@H]1Cc2c([nH]c3ccccc23)[C@H](c2ccc(S(=O)(=O)N(C)C)cc2)N1C(=O)CCl

6.34
5.86
5.48
5.62

---

experimentSummary: Whole blood stability, human
Assay type: in vitro ADME
conditionDescription: 30 min
Give 1.0 when the value for Whole Blood Stability % Remaining at 37° C. Human is at least 80%. Give 0.0 when it is less.

Answered cases to consult:
>>> grouplabel("C[C@H]1Cc2c([nH]c3ccccc23)[C@H](c2ccc(N3CCOCC3)cc2)N1C(=O)CCl")
1.0
>>> grouplabel("COC(=O)c1ccc([C@@H]2c3c(c4ccccc4n3C)C[C@H](C(=O)OC)N2C(=O)CCl)cc1")
0.0
>>> grouplabel("COC(=O)c1ccc([C@H]2c3[nH]c4ccccc4c3C[C@H](C)N2C(=O)CCl)cc1")
0.0
>>> grouplabel("CCC[C@H]1Cc2c([nH]c3ccccc23)[C@H](c2ccc(N3CCOCC3)cc2)N1C(=O)CCl")
1.0
>>> grouplabel("COC(=O)[C@H]1Cc2c([nH]c3ccccc23)[C@H](c2ccc(S(=O)(=O)NCC3CC3)cc2)N1C(=O)CCl")
0.0

Note: attention shifts to another entry.
# bool: Whole Blood Stability % Remaining at 37° C. Human of COC(=O)C1CCC([C@H]2c3[nH]c4ccccc4c3C[C@H](C(=O)N(C)C)N2C(=O)CCl)CC1 (stereo partly shown) >= 80%
1.0
